Biological target: Neurogenic locus notch homolog protein 2 (Homo sapiens) (UniProt Q04721)
Sequence (Q04721 whole entry, looked up): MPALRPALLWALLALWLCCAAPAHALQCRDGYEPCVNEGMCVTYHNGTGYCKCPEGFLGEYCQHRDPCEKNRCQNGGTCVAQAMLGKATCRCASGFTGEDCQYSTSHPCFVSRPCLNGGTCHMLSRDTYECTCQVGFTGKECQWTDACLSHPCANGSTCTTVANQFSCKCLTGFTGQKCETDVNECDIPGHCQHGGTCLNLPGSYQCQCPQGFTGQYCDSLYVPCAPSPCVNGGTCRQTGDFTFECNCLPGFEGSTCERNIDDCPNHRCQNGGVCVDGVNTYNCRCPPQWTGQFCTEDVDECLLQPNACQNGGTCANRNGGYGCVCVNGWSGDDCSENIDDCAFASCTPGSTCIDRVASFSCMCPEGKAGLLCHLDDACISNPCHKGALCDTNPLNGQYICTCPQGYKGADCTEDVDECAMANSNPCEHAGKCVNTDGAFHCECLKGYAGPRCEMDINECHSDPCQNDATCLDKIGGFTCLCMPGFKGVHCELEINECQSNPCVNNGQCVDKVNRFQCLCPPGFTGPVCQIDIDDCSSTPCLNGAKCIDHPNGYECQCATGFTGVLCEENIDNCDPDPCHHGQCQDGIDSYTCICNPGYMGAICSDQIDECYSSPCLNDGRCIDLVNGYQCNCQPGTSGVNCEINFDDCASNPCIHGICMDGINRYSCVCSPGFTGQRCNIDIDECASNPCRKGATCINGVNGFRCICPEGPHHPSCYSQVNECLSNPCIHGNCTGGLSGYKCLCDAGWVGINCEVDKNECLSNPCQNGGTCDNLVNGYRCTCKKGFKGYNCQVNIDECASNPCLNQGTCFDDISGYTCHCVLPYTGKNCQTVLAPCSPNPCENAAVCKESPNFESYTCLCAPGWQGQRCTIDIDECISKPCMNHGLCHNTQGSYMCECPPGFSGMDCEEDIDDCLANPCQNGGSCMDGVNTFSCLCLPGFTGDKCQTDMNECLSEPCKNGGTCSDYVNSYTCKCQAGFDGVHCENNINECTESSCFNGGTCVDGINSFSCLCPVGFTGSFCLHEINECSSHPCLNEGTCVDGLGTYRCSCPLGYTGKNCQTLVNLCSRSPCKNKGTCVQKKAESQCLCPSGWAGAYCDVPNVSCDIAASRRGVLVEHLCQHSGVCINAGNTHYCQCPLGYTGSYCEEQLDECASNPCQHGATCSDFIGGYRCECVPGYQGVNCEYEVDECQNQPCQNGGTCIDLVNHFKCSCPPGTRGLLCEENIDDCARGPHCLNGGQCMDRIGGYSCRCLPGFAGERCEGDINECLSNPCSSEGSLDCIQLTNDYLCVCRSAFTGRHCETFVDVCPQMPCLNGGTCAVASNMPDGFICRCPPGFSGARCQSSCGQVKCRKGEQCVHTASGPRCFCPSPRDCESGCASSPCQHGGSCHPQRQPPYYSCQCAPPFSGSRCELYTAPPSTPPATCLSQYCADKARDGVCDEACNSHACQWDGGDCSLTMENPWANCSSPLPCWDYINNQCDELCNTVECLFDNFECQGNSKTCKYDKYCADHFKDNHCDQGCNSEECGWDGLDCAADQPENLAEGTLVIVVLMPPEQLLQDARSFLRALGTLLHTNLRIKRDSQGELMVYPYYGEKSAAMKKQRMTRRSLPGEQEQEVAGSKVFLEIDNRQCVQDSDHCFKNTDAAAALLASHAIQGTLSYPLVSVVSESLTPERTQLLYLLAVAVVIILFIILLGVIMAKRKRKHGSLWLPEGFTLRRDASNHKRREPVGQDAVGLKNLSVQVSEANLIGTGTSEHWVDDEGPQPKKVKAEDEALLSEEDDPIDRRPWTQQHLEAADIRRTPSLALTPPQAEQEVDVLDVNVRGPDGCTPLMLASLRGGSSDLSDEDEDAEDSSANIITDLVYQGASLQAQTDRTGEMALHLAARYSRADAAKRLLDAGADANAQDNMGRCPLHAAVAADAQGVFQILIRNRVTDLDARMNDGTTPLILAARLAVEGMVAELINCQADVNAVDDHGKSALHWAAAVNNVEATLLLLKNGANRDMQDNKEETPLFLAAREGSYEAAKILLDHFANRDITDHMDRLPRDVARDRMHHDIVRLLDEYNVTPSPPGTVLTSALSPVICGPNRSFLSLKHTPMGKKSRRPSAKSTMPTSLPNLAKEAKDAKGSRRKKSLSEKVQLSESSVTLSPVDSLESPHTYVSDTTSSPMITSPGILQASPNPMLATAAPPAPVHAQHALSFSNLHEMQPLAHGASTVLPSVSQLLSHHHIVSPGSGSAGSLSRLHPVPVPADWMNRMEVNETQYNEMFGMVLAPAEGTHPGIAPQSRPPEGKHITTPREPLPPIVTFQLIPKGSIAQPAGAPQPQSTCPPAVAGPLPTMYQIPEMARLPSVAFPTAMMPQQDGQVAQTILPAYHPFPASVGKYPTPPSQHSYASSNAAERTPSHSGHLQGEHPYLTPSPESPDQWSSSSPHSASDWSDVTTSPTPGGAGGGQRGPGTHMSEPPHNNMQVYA
Assay: Notch2 binders on small-molecule microarrays, primary screen, biochemical, small-molecule microarray, 635 nm fluorescence, stem cell growth factors (AID 1073)
Conditions: Notch2 binding, higher = more signal
OBSERVATION_TYPE: composite z-score

{"columns": ["COMPOUND", "SYSTEM_NAME", "MEASURED_NUMBER"],
 "data": [
  ["O=C1[C@H]2[C@H]3[C@H](O)[C@H](O)CC(=NOC[C@@H](O)COCc4ccco4)[C@@H]3CC[C@H]2C(=O)N1C1CCCCC1", "Neurogenic locus notch homolog protein 2 (Homo sapiens) (UniProt Q04721)", 0.0224],
  ["C[C@@H]1CC[C@H]2C(=O)OC(CN3C(=O)c4ccccc4C3=O)CN2[C@H]1c1ccc(Br)cc1 (stereo not given in full)", "Neurogenic locus notch homolog protein 2 (Homo sapiens) (UniProt Q04721)", 0.315],
  ["COC(=O)[C@H](C)NC(=O)CCC1CC(OC(=O)NCc2ccc3c(c2)OCO3)CC2(CCCC(COC(=O)NCc3ccccc3)O2)O1 (stereo not given in full)", "Neurogenic locus notch homolog protein 2 (Homo sapiens) (UniProt Q04721)", 0.748],
  ["C#CCCCON=C1C[C@@H](O)[C@@H](O)[C@@H]2[C@@H]3C(=O)N(C[C@@H]4CCCO4)C(=O)[C@@H]3CC[C@@H]12", "Neurogenic locus notch homolog protein 2 (Homo sapiens) (UniProt Q04721)", 0.922],
  ["CCCNC(=O)OC[C@H]1O[C@H](CCON=C[C@@H](NS(=O)(=O)c2ccc(C)cc2)[C@H](C)C=CCC(=O)OC)C=C[C@@H]1Oc1ccc(OC)cc1", "Neurogenic locus notch homolog protein 2 (Homo sapiens) (UniProt Q04721)", -0.127],
  ["COC(=O)[C@H](C)NC(=O)CCC1CC(OC(=O)NCc2cccc3ccccc23)CC2(CCCC(COC(=O)NCc3ccccc3)O2)O1 (stereo not given in full)", "Neurogenic locus notch homolog protein 2 (Homo sapiens) (UniProt Q04721)", 1.39],
  ["O=C1[C@H]2CCn3c(=O)n(Cc4cc5c(cc4Cl)OCO5)c(=O)n3[C@H]2[C@H](O)[C@@H]2O[C@H]12", "Neurogenic locus notch homolog protein 2 (Homo sapiens) (UniProt Q04721)", -0.382],
  ["COCCNC(=O)OCC1CCCC2(CC(OC(=O)NCc3cccc4ccccc34)CC(CCC(=O)N[C@@H](C)C(=O)OC)O2)O1 (stereo not given in full)", "Neurogenic locus notch homolog protein 2 (Homo sapiens) (UniProt Q04721)", 0.668],
  ["COC(=O)[C@H](C)NC(=O)CCC1CC(OC(=O)NCCc2ccc(F)cc2)CC2(CCCC(COC(=O)NCc3ccccc3)O2)O1 (stereo not given in full)", "Neurogenic locus notch homolog protein 2 (Homo sapiens) (UniProt Q04721)", 1.06],
  ["CO[C@@H]1COC(=O)CC=C[C@H](C)[C@H](OC)COC(=O)[C@@H]2CCCN2C(=O)CC=C[C@H]1C", "Neurogenic locus notch homolog protein 2 (Homo sapiens) (UniProt Q04721)", -0.271],
  ["CCC1=NOC(CCC2CC(OC(=O)NCc3cccc4c3OCO4)CC3(CCCC(COC(=O)NCCc4ccc(Cl)cc4)O3)O2)C1 (stereo not given)", "Neurogenic locus notch homolog protein 2 (Homo sapiens) (UniProt Q04721)", 0.0241],
  ["C[C@@H]1CC[C@H]2C(=O)O[C@@H](COc3ccc(C(C)(C)C)cc3)CN2[C@H]1c1ccc(Br)cc1", "Neurogenic locus notch homolog protein 2 (Homo sapiens) (UniProt Q04721)", -0.0477],
  ["O=C1C2=CC[C@H]3C(=O)N(C4CCCCC4)C(=O)[C@H]3[C@H]2[C@H](O)[C@@H]2O[C@H]12", "Neurogenic locus notch homolog protein 2 (Homo sapiens) (UniProt Q04721)", -0.423],
  ["CC(C)(C)N1C(=O)[C@H]2[C@H]3[C@H](O)[C@H](O)CC(=NNC(=O)OCc4ccccc4)[C@@H]3CC[C@H]2C1=O", "Neurogenic locus notch homolog protein 2 (Homo sapiens) (UniProt Q04721)", 0.447],
  ["CC(C)(C)N1C(=O)[C@H]2[C@H]3[C@H](O)[C@H](O)CC(=NOC[C@@H](O)COCc4ccco4)[C@@H]3CC[C@H]2C1=O", "Neurogenic locus notch homolog protein 2 (Homo sapiens) (UniProt Q04721)", 0.0503]
]}

* * *

Below is a list of entries, each paired with its recorded z-score value.
Test: RPMI8226 myeloma cell viability, profiling panel, resazurin fluorescence, basal, 24 h, PK04 Diversity Set (AID 1180);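 note: RPMI8826 multiple myeloma cell line at 5000 cells per well; test concentration not given here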
Details: higher = more signal
OBSERVATION_TYPE: z-score

{"columns": ["COMPOUND", "OBSERVATION_TYPE", "RESULT"],
 "data": [
  ["COc1ccc(O[C@H]2C=C[C@@H](C#Cc3ccccc3)O[C@@H]2CO)cc1", "z-score", -0.021],
  ["CSCC[C@@H]1NC(=O)CC=C[C@@H](C)COC(=O)[C@H](C)COC1=O", "z-score", -0.135],
  ["CCc1cc2c(nc1CC)CCN(CCC(C)=NO[C@@H]1O[C@H](COC(C)=O)[C@@H](OC(C)=O)[C@H](OC(C)=O)[C@H]1OC(C)=O)C2", "z-score", -0.387],
  ["CCOC(=O)[C@H](Cc1ccccc1)NC(=O)CCC1CC(OC(=O)NCc2ccc3c(c2)OCO3)CC2(CCCC(COC(=O)NCCOc3ccccc3)O2)O1 (stereo partly specified)", "z-score", 0.579],
  ["C#CCCCON=C1C[C@@H](O)[C@@H](O)[C@@H]2[C@@H]3C(=O)N(C[C@@H]4CCCO4)C(=O)[C@@H]3CC[C@@H]12", "z-score", 0.199],
  ["CC(=O)OC[C@H]1O[C@H](C#CCC2CCCCC2)C=C[C@@H]1OC(C)=O", "z-score", -1.24],
  ["CO[C@H]1COC(=O)CC=C[C@@H](C)COC(=O)[C@H]2CCCN2C(=O)CC=C[C@H]1C", "z-score", -0.258],
  ["C[C@]12CCC3c4ccc(OCC5CO5)cc4CCC3C1CC[C@@H]2O (stereo partly specified)", "z-score", 1.68],
  ["CCOC(=O)NN=C1C[C@@H](O)[C@@H](O)[C@@H]2[C@@H]3C(=O)N(C[C@@H]4CCCO4)C(=O)[C@@H]3CC[C@H]12", "z-score", -0.248],
  ["CC(CCN1CCc2nc(-c3ccccc3)c(-c3ccccc3)cc2C1)=NOC(C)CN1CCCc2nc(C)c(C)cc21 (stereo unspecified)", "z-score", -0.469],
  ["COC(=O)CC=C[C@@H](C)[C@@H](C=NOC[C@@H](O)COCc1ccco1)NS(=O)(=O)c1ccc(C)cc1", "z-score", -0.974],
  ["CCc1cc2c(nc1CC)CCN(CCC(C)=NOC(C)CN1CCCCc3nc(C)c(C)cc31)C2 (stereo unspecified)", "z-score", 0.825],
  ["COc1ccc(COC(=O)NN=C2C[C@@H](O)[C@@H](O)[C@@H]3[C@@H]4C(=O)N([C@@H](C)c5ccccc5)C(=O)[C@@H]4CC[C@@H]23)cc1", "z-score", -0.521],
  ["COc1ccc(COC(=O)NN=C2C[C@@H](O)[C@@H](O)[C@@H]3[C@@H]4C(=O)N(Cc5ccccc5)C(=O)[C@@H]4CC[C@@H]23)cc1", "z-score", 1.12],
  ["COc1ccc(O[C@H]2C=C[C@@H](c3ccccc3)O[C@@H]2CON=C2c3cc(OC)ccc3O[C@H](c3cccc(OC)c3)[C@H]2O)cc1", "z-score", -0.387],
  ["C[C@H]1CC[C@@H](C(=O)O)N[C@@H]1c1cccc(N2CCCC2=O)c1", "z-score", -0.652]
]}

* * *

Assay: mitochondrial membrane potential change in A549 cells, profiling panel, cell-based, JC-1 fluorescence, basal, 24 h, 100 nL (AID 1138);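 note: A549 lung adenocarcinoma cells under basal conditions with no added stimulus; test concentration not given here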
Conditions: higher = more signal

{"columns": ["SUBSTANCE_SMILES", "z-score"],
 "data": [
  ["CC(C)=NO[C@@H](C)c1cn([C@H](CO)Cc2ccccc2)nn1", -0.0312],
  ["CC(=O)OC[C@H]1O[C@H](CCON=C(C)CCN2CCCc3nc(C)c(C)cc32)C=C[C@@H]1OC(C)=O", -0.349],
  ["CC(CCN1CCCc2nc(C)c(C)cc21)=NO[C@@H](C)c1cn([C@H](CO)Cc2ccccc2)nn1", -0.088],
  ["CC(C)[C@@H](OCc1ccccc1)[C@H](C)C=NO[C@@H](C)c1cn([C@H](CO)Cc2ccccc2)nn1", -1.02],
  ["O=C1C2=CC[C@H]3C(=O)N(C[C@@H]4CCCO4)C(=O)[C@H]3[C@H]2[C@H](O)[C@@H]2O[C@H]12", 0.982],
  ["O=C(NN=C1C[C@@H](O)[C@@H](O)[C@@H]2[C@@H]3C(=O)N(Cc4ccccc4)C(=O)[C@@H]3CC[C@H]12)OCc1ccccc1", 0.101],
  ["CCOC(=O)CCN1C(=O)[C@H]2[C@H]3[C@H](O)[C@H](O)CC(=NO[C@@H]4O[C@H](CO)[C@@H](O)[C@H](O)[C@H]4O)[C@@H]3CC[C@H]2C1=O", -0.102]
]}
